Where do the numbers come from? From patent US9688764B2.

- Test system: HEK293 (non-expressing parental cells)
- Protocol Summary: FACS cell surface binding
Observed Property: FACS Cell Binding (Fold Above Background)

# Molecule, Measurement Units, Value
measured = [
    ("H1H6774P: anti-PRLR antibody, human IgG1 Fc; HCVR/LCVR SEQ ID NOs 34/42 (antibody, V domains shown, human IgG1 Fc) VH: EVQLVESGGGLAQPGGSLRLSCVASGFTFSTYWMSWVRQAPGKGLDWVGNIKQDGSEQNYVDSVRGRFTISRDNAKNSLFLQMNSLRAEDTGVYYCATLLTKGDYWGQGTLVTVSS VL: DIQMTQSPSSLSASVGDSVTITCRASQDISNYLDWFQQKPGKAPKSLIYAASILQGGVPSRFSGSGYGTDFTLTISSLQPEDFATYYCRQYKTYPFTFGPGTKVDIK", "Fold Above Background", 1),
]
